Test system: PC12 cells
Test: Etoposide-induced apoptosis in PC12 cells, cell viability
Type: cell-based
Settings: Rattus norvegicus, PC-12; 30 μM compound; etoposide-induced apoptosis, PC12 cells; read-out: % Viability 30 μM
Just a reminder that ties go to 0: only viability at 30 µM strictly below 70% counts as 1.

CCOC(=O)Nc1ccc(NCc2ccc(OC)cc2)nc1N    0
CCOC(=O)Nc1ccc(NCc2ccc3ccccc3c2)nc1N    0
CCOC(=O)Nc1ccc(NCc2ccc(-c3cccs3)cc2)nc1N    1
CC(C)COC(=O)Nc1ccc(NCc2ccc(F)cc2)nc1N    1
CCOC(=O)Nc1ccc(NCCc2ccccc2)nc1N    1
CCOC(=O)Nc1ccc(NCc2ccc(-c3ccccc3)cc2)nc1N    1
CCOC(=O)Nc1ccc(N2CCOCC2)nc1N    1
CCOC(=O)Nc1ccc(NCc2ccc(F)cc2F)nc1N    0
CCOC(=O)Nc1ccc(NCc2ccc(OC(F)(F)F)cc2)nc1N    0
Nc1nc(NCc2ccc(F)cc2)ccc1NC(=O)OCc1ccccc1    1
Nc1nc(NCc2ccc(F)cc2)ccc1NC(=O)OCC(Cl)(Cl)Cl    0
CCCOC(=O)Nc1ccc(NCc2ccc(F)cc2)cc1N    1
CC(C)(C)OC(=O)Nc1ccc(NCc2ccc(F)cc2)nc1N    1
CCOC(=O)Nc1ccc(NCc2ccc(C(F)(F)F)cc2)nc1N    0
CCCCCCOC(=O)Nc1ccc(NCc2ccc(F)cc2)cc1N    0
C=CCOC(=O)Nc1ccc(NCc2ccc(F)cc2)nc1N    1
C=CCOC(=O)Nc1ccc(NCc2cccc(C(F)(F)F)c2)nc1N    0
CC(Cl)OC(=O)Nc1ccc(NCc2ccc(F)cc2)nc1N (stereo not shown)    0
Nc1ccc(N(Cc2ccc(F)cc2)C(=O)OCc2ccccc2)cc1N    0
CCOC(=O)Nc1ccc(NCc2ccc(C)cc2)cc1N    0
CCOC(=O)Nc1ccc(NCc2ccc(Cl)cc2)nc1N    1
Cc1ccc(OC(=O)Nc2ccc(NCc3ccc(F)cc3)cc2N)cc1    1
CCOC(=O)Nc1ccc(NCc2cccc(C)c2)nc1N    0
C#CCOC(=O)Nc1ccc(NCc2ccc(F)cc2)nc1N    1
CCOC(=O)Nc1ccc(OCc2ccc(C(F)(F)F)cc2)nc1N    0

---

System: PC12 cells
Assay: Etoposide-induced apoptosis in PC12 cells, cell viability
Assay type: cell-based
Details: Rattus norvegicus, PC-12; 30 μM compound; etoposide-induced apoptosis, PC12 cells; read-out: % Viability 30 μM
measurementName: viability at 30 µM (%)

CCOC(=O)Nc1ccc(NCc2ccc(F)cc2)nc1    69.3
Nc1nc(NCc2ccccc2C(F)(F)F)ccc1NC(=O)OCC(Cl)(Cl)Cl    71.6
CCOC(=O)Nc1ccc(NCc2ccc(F)cc2)nc1N [NK-1-4, reference compound]    71.3
